Tested on: Wild type
Test Description: S. aureus survival, RN4220 and DeltatarO strains – OD600, teichoic acid synthesis inhibitors, primary screen (AID 463173)
Condition Notes: S. aureus RN4220 wild type/DeltatarO growth, OD600, 18 h, active compounds read low, screened at 18.75 µg/mL (by protocol)
Among all 52,000 compounds or so, about 1,700 (3.3%) were called active. This is one part of a sample in which actives are shown more often than they occur.
Friendly reminder: survival below 70% is 1 (yes), at or above is 0 (no).

COc1ccc(C(=O)NCC(c2cccs2)S(=O)(=O)c2ccc(C)cc2)cc1 (centres undefined)
0 (no)
CCCCCn1c(=O)[nH]c2cc(C(=O)Nc3ccc(OC)c(OC)c3)ccc2c1=O
0 (no)
Cc1cccc(C(=O)Nc2cccc(OCc3cc(=O)n4c(C)csc4n3)c2)c1
0 (no)

Please look at the following compound next.
Incoming: survival strictly < 70% for this compound? `CCc1ccccc1NS(=O)(=O)c1ccc2[nH]cc(C(=O)N3CCCCC3)c(=O)c2c1`
Outgoing: 0 (no)
